Assay: Single dose oral pharmacokinetic study in mice
Format: in vivo
Settings: mouse, plasma; Oral PK @ 30 mg/ kg dose in mice (Table 6)
Procedure: The test item was administered through oral route to animals (rat/mice) at 30 mg/kg dose in a suitable vehicle at 10 ml/kg dose volume. Blood samples (˜50 uL at each time point) were collected from retro-orbital plexus using K3 EDTA as anticoagulant in eppendorf tubes at defined time intervals under light ether anesthesia. […] Sample analysis: Test samples were analyzed using LC-MS-MS after developing fit-for-purpose method for each of test compound.
Exercise: state measured AUC(0-inf) for each of the compounds provided.
Kindly provide the numeric value in µg·h/mL only, without the unit symbol.

Supply reported AUC(0-inf) belonging to this compound: [2H]C([2H])([2H])C(CC(=O)O[C@H]1CC[C@]2(C)[C@H]3CC[C@@H]4[C@H]5[C@H](C(=C)C)CC[C@]5(C(=O)N[C@@H]5C[C@H](C(=O)N6CCCCC6)C5(C)C)CC[C@@]4(C)[C@]3(C)CC[C@H]2C1(C)C)(C(=O)O)C([2H])([2H])[2H]
123

Supply reported AUC(0-inf) belonging to this compound: CC1([C@@H]2CC[C@]3(C(=O)N4CCN(CCN5CCOCC5)CC4)CC[C@]4(C)[C@H](CC[C@@H]5[C@@]6(C)CC[C@H](OC(=O)[C@H]7C[C@@H](C(=O)O)C7(C)C)C(C)(C)[C@@H]6CC[C@]54C)[C@@H]23)CC1
240

Supply reported AUC(0-inf) belonging to this compound: [2H]C([2H])([2H])C(CC(=O)O[C@H]1CC[C@]2(C)[C@H]3CC[C@@H]4[C@H]5[C@H](C6(C)CC6)CC[C@]5(C(=O)N5CCN(CC)CC5)CC[C@@]4(C)[C@]3(C)CC[C@H]2C1(C)C)(C(=O)O)C([2H])([2H])[2H]
78.5

Supply reported AUC(0-inf) belonging to this compound: CC1([C@@H]2CC[C@]3(C(=O)N4CCOCC4)CC[C@]4(C)[C@H](CC[C@@H]5[C@@]6(C)CC[C@H](OC(=O)[C@H]7C[C@@H](C(=O)O)C7(C)C)C(C)(C)[C@@H]6CC[C@]54C)[C@@H]23)CC1
398

====

Assay: Single dose oral pharmacokinetic study in mice
Type: in vivo
Conditions: mouse, plasma; Mice oral PK @30 mg/kg (Table 4)
Exercise: state measured Cmax for each of the molecules provided.
Kindly provide the numeric value in ng/mL only, without the unit symbol.

Supply reported Cmax belonging to this molecule: C=C(C)[C@@H]1CC[C@]2(C(=O)N[C@@H]3C[C@H](c4nnc(C)o4)C3(C)C)CC[C@]3(C)[C@H](CC[C@@H]4[C@@]5(C)CC[C@H](OC(=O)CC(C)(C)C(=O)O)C(C)(C)[C@@H]5CC[C@]43C)[C@@H]12
11300

Supply reported Cmax belonging to this molecule: C=C(C)[C@@H]1CC[C@]2(C(=O)O)CC[C@]3(C)[C@H](CC[C@@H]4[C@@]5(C)CC[C@H](OC(=O)[C@H]6[C@@H](CC(=O)O)C6(C)C)C(C)(C)[C@@H]5CC[C@]43C)[C@@H]12
8790

Supply reported Cmax belonging to this molecule: CC(C)(CC(=O)O[C@H]1CC[C@]2(C)[C@H]3CC[C@@H]4[C@H]5[C@H](C6(C)CC6)CC[C@]5(C(=O)N[C@@H]5C[C@H](C(=O)N6CCCCC6)C5(C)C)CC[C@@]4(C)[C@]3(C)CC[C@H]2C1(C)C)C(=O)O
9780
